- System: Caenorhabditis elegans
- test: Activation of unfolded protein response in Caenorhabditis elegans mitochondria at 5 uM
- Format: functional, organism-based
The source made the active and inactive calls. The calls are words filed in the database; no cut-off is given here.

smi | Activity
C=CC/C=C\Cc1csc(C(C)(C)[C@@H](O)C/C=C\C(=C)CCNC(=O)OC)n1 | inactive
C=CC/C=C\Cc1csc(C(C)(C)[C@H](O)C/C=C\C(=C)CCNC(=O)OC)n1 | inactive
C=CC/C=C\Cc1csc(C(C)(C)[C@H](C/C=C\C(=C)CCNC(=O)OC)OC(C)=O)n1 | inactive
C=CC/C=C\Cc1csc(C(C)(C)[C@H](O)C/C=C/C(=C)CCNC(=O)OC)n1 | inactive
